- Tested on: Plasmodium berghei
- Method: animal or person
- Format: in vivo, Plasmodium berghei (strain ANKA) in mice
- Measurement parameters: Plasmodium berghei, sc; single subcutaneous dose of 10 mg/kg, mice, blood smears 48 h after treatment; read-out: Growth inhibition in % after sc administration (GI%, percentage reduction of the parasitemia)
Exercise: for every item that follows, state its recorded inhibition in vivo at 10 mg/kg.
Record the value in %, omitting the unit from your answer.

Given the entry CC(C)(CNc1ccnc2cc(Cl)ccc12)NCc1ccncc1 [Example 11] , report its measured inhibition in vivo at 10 mg/kg. 99.8

Further, for Cl.Cl.Fc1cc(CN[C@H]2CC[C@@H](Nc3ccnc4cc(Cl)ccc34)CC2)ccc1Cl [Example 76, dihydrochloride] ? 96

Further, for COc1cccc(CNC(C)(C)CNc2ccnc3cc(Cl)ccc23)c1O.Cl.Cl [Example 30, dihydrochloride] ? 95

Further, for Cl.Cl.Clc1ccc2c(N[C@H]3CC[C@H](NCCc4ccc(Cl)c(Cl)c4)CC3)ccnc2c1 [Example 99, dihydrochloride] ? 96

Further, for COc1cc(CCN[C@H]2CC[C@H](Nc3ccnc4cc(Cl)ccc34)CC2)ccc1O.Cl.Cl [Example 104, dihydrochloride] ? 100

Further, for CC(C)(CNc1ccnc2cc(Cl)ccc12)NCc1ccc(C(F)(F)F)cc1 [Example 9] ? 74

Further, for Cl.Cl.Clc1ccc2c(N[C@H]3CC[C@@H](NCc4ccc(Cl)c(Cl)c4)CC3)ccnc2c1 [Example 74, dihydrochloride] ? 84
